Recorded protein stability index by entry
B1: SOAT1 (parent)
chain: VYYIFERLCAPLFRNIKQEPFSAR

- Variants of: B1
- protocol-notes: protein stability index of a GFP-peptide fusion (GPS, HEK-293T) (PSI 1-6); higher = more stable;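 further: lentivirally expressed fusions sorted by FACS into six bins by GFP to DsRed ratio, PSI derived from sequencing read proportions per bin multiplied by bin number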
- details: c terminus: a fixed tail appended
Give your answer as a number; write no unit.

Consider the following illustrative entries.
| alteration | protein stability index |
| --- | --- |
| E19C | 3.4 |
| K17N | 2.87 |

Prompt: Field request: protein stability index | item: "P20Q"
Completion: 2.44

Prompt: Field request: protein stability index | item: "F5V"
Completion: 3.45

Prompt: Field request: protein stability index | item: "E6L"
Completion: 4.01

Prompt: Field request: protein stability index | item: "Y3W"
Completion: 2.93

Prompt: Field request: protein stability index | item: "P11V"
Completion: 2.39

Prompt: Field request: protein stability index | item: "P20Y"
Completion: 4.1

Prompt: Field request: protein stability index | item: "C9L"
Completion: 1.67

Prompt: Field request: protein stability index | item: "I16Y"
Completion: 2.17

Prompt: Field request: protein stability index | item: "F5E"
Completion: 2.49

Reference for the values: the supplement of paper PMC10567573
